Tested on: MCF7:CFR
Assay: Growth inhibition of fulvestrant-resistant human MCF7:CFR 3D spheroid cells at 100 nM supplemented with fresh medium containing compound every 2 to 3 days for 9 days by celltitre-glo assay relative to control
Type: functional
Calls of active or inactive are those of the source. The rule behind the calls is not given here.
The categories you may choose from are TRUE (active), FALSE (inactive)

// below: answered molecules
# Molecule, Assigned Category
data = [
    ("C[C@]12CC[C@@H]3c4ccc(O)cc4C[C@@H](CCCCCCCCC[S+]([O-])CCCC(F)(F)C(F)(F)F)[C@H]3[C@@H]1CC[C@@H]2O (some centres undefined)", "FALSE"),
    ("CC/C(=C(\\c1ccc(O)cc1)c1ccc(OCCN(C)C)cc1)c1ccccc1", "FALSE"),
    ("COc1nnc2ccc(N3CCC(c4ccc(OCCN5CCN(C)C(=O)[C@H]5C)cc4)CC3)nn12", "TRUE"),
]

Shifting focus to the molecule that follows.
Task: # fetch the recorded call for Cc1sc2c(c1C)C(c1ccc(Cl)cc1)=N[C@@H](CC(=O)OC(C)(C)C)c1nnc(C)n1-2 here
Result: TRUE

The reported measurements were obtained from ChEMBL document CHEMBL4610112.
